Molecular target: T1, human IL-17A (human, UniProt Q16552 20-155, limits assumed)
T1 construct: Bought from R&D Systems; also called IL-17 antigen (human IL17A)
T1 sequence (looked up): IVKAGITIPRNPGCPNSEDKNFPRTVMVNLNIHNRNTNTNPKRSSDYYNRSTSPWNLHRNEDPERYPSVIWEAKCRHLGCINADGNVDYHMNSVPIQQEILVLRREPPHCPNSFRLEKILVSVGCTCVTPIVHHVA
Assay: BLI (Octet Red96), antibody captured on AHC biosensor, human IL-17A in solution, 1:1 model, 25 C
For each entry below, report its pKd value.
One number for each entry, as −log10 of the molar value.

[[record]]
binder = "PP10760 (antibody, human IgG4 S228P, kappa, V domains shown, Humanized, human IgG4/kappa; also called VH6665/VL6665) VH: EVQLVESGGGLVQPGGSLRLSCAASGFTFSTYGMSWVRQAPGKGLELVSIINHNGGSTFYPDSVKGRFTISRDNSKNTLYLQMNSLRAEDTAVYYCARDPRHDGYFFDYWGQGTLVTVSS VL: DIQMTQSPSSLSASVGDRVTITCQASEDIYDRLAWYQQKPGKAPKLLISGATSLETGVPSRFSGSGSGTDYTFTISSLQPEDIATYYCQQYWSVPWTFGGGTKVEIKR"
measuredresult = 9.51


Now look at this entry.
Problem: Would you mind telling me what pKd value was observed for PP10763 (antibody, human IgG4 S228P, kappa, V domains shown, Humanized, human IgG4/kappa; also called VH6666/VL6665) VH: EVQLVESGGGLVQPGGSLRLSCAASGFTFSTYGMSWVRQAPGKGLELVAIINHNGGSTFYPDSVKGRFTVSRDNSKNTLYLQMNSLRAEDTAVYYCARDPRHDGYFFDYWGQGTLVTVSS VL: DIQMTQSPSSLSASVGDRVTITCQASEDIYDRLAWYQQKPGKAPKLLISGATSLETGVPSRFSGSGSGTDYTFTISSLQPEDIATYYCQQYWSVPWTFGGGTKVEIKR ?
Solution: 9.44
